# assay.target: Metabotropic glutamate receptor 5 (Rattus norvegicus, UniProt P31424)
# Sequence (P31424 whole entry): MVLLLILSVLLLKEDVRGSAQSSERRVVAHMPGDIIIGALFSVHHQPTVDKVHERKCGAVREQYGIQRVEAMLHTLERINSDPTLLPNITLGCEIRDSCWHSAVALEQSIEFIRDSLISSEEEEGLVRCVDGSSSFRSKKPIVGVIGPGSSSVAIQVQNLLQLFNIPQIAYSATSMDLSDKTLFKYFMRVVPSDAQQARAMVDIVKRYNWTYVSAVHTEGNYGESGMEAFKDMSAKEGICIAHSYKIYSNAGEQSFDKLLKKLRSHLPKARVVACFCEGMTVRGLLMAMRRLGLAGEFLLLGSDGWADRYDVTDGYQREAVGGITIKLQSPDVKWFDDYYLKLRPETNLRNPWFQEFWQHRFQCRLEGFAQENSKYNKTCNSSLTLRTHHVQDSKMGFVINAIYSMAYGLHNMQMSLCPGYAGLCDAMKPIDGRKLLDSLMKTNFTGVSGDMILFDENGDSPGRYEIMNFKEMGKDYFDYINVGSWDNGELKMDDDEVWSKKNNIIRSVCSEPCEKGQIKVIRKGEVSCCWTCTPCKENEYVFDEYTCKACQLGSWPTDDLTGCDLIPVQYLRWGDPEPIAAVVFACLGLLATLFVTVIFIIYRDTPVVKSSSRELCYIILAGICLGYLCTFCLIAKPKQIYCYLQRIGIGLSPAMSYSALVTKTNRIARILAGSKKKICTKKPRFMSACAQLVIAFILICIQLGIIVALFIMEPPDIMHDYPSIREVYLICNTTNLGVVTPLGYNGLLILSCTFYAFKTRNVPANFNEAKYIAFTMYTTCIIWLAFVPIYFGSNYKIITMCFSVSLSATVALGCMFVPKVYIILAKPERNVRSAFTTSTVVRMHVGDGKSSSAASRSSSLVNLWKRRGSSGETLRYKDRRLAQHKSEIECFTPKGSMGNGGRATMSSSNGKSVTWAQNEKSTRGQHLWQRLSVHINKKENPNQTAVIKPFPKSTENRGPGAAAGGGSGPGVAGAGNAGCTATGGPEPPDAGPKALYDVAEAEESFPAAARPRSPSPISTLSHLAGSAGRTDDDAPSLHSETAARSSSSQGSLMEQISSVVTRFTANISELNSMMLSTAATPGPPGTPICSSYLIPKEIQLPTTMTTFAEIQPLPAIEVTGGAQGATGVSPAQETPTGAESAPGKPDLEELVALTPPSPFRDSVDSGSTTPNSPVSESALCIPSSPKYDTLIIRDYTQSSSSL
# measurement.description: Positive allosteric modulation of rat mGlu5 receptor expressed in HEK293 cells
quantity.kind: EC50 (nM)
One number for each entry, in nM.

Could I get EC50 for every one of these entries?
1. COC1c2cc(COc3ccccc3)nn2CCC1(C)C (stereo not drawn)
2. CN(Cc1ccccc1)C1CCCn2nc(COc3ccccc3)cc21 (stereo not drawn)

-- reply
[796, 686]

OC1(c2ccccc2)CCCn2nc(COc3ccccc3)cc21 (stereo not drawn) tested on Metabotropic glutamate receptor 5 (Rattus norvegicus, UniProt P31424) gave EC50: 1200

---

# assay.target: UniProt P31424
# measurement.description: Positive allosteric modulation of rat mGlu5 receptor expressed in HEK293 cells relative to glutamate
# Assay type: cell-based
# Set-up: concentration or dose not given beside the values
quantity.kind: Activity (%)
Answers are plain numbers, in %.

Consider the reported Activity for these compounds:
compound="CC1CCn2nc(COc3ccccc3)cc2C1=O (stereo not drawn)" quantity_kind=Activity experimental_result=76
compound="COc1ccc(CNC2CCCn3nc(COc4ccccc4)cc32)cc1 (stereo not drawn)" quantity_kind=Activity experimental_result=60

Could I get Activity for every one of these entries?
1. O=C1c2cc(COc3ccccc3)nn2CCC12CCCC2
2. CC1(C)CCn2nc(OCc3ccccc3)cc2C1=O

-- reply
1: 60; 2: 56

Could I get Activity for every one of these entries?
1. CC1CCn2nc(COc3ccccc3)cc2C1(C)O (stereo not drawn)
2. c1ccc(CNC2CCCn3nc(COc4ccccc4)cc32)cc1 (stereo not drawn)
3. CC1(c2ccc(F)cc2)CCn2nc(COc3ccccc3)cc2C1=O (stereo not drawn)

-- reply
1: 39; 2: 74; 3: 58

Could I get Activity for every one of these entries?
1. CCCCC1(O)CCCn2nc(COc3ccccc3)cc21 (stereo not drawn)
2. COc1ccccc1C1CCn2nc(COc3ccccc3)cc2C1=O (stereo not drawn)
3. O=C1CCCn2nc(COc3ccccc3)cc21
4. Fc1cccc(CNC2CCCn3nc(COc4ccccc4)cc32)c1 (stereo not drawn)
5. O=C1c2cc(OCc3ccccc3)nn2CCC1c1ccc(F)cc1 (stereo not drawn)
6. COC1CCCn2nc(COc3ccccc3)cc21 (stereo not drawn)

-- reply
44
68
66
75
48
43
